- Tested on: MS2 coat protein
- PROCEDURE_SUMMARY: apparent KD of MS2 coat protein; designed switch direction (-1 OFF switch, 1 ON switch): -1; higher = weaker reporter binding
- ASSAY_CONTEXT: Eterna round: R95; input ligand: microRNA oligo, concentration not stated
PROPERTY_MEASURED: apparent KD of MS2 coat protein (nM)

1) AGAUGUAGAUACCGAUCCUACAUGAGGAUCACCCAUGUAGCAAGACGUGCACGCGAAGCUCGUCAGACUACCAGAAG [salish99_TOv1_r3_083] (puzzle: Sensor v3, turn-off variant 1)	99.7
2) CCCUCACAUGAGGAUCACCCAUGUCAGGAUAUUCAAAGCGCAAAUGCGCCAAAUGCAGGAAGAAGGGACGUGCC [Bisoar] (puzzle: Exclusion 1)	13.3
3) GAGGGACAUGAGGAUCACCCAUGUGAGGAUAUGUGAGAAGGAUUGGAGAGUGAGUGGGACAGAAGGCGCAAGGG [JR_Exclu1_Sub085] (puzzle: Exclusion 1)	59.9
4) UUAAUGUGAGGAUAUCAGGUGUGCUAGCGUACUGGUACAUCUGAGAAGGCACAUGAGGAUCACCCAUGUUCCUG [JL-ex4-3.28 Brourd mod] (puzzle: Exclusion 4)	20.6
5) AUUAGUAUCUAGGAUAUCUAGUACAUAGUAUCUAGAGAAGGAGAUACAUGAGGAUCACCCAUGUUCUGUGAUCU [Exclusion 6 - 2:a] (puzzle: Exclusion 6)	155
6) GAGCUAUGAGGAUAUGCAUAUAUGCGGUUUCGUGUGGUACUACAUGAGGAUCACCCAUGUAGAAGGCGUGGCAG [Mat - Exclusion 2 - Mod of JL - D79] (puzzle: Exclusion 2)	13.2
7) AGUGCGUAUGUGAGGAUAUGCUGGUCCUUGGCUCGGCAGAAGGCACAUGAGGAUCACCCAUGUGGUGUCGUACU [salish99_Bmod_ex4_066] (puzzle: Brourd's mod of Exclusion 4)	148
8) CUCAUGUGAGGAUAUGUGAUCAACCUUCUGUAUAGAUGAUGACAGAAGGCACAUGAGGAUCACCCAUGUAGAUC [Ex4 - 3 - 18] (puzzle: Exclusion 4)	46.7
9) CACAAGCUUUUUUGUUGCUUUUUAGUUGGUGUAUGAUAAACAUGAGGAUCACCCAUGUAAUAGAUGCUCGAUCUUUU [JR_SV3TOV2_Sub083] (puzzle: Sensor v3, turn-off variant 2)	21.7
10) CUCCUCAUGGCGCCUAAACACAUGAGGAUCACCCAUGUAUAGGCUUUUUGCCGUCUUAUAAUAAAACCGAGGAUGCG [Rianza] (puzzle: Sensor v3, turn-off variant 1)	276
11) AGUACUAUCACGAAAGUGAUAGUACAAAAUAACAAGUGAACAUGAGGAUCACCCAUGUCCUCAUUUGCUCGUCUUAU [Sensor 3 - 18] (puzzle: Sensor v3, turn-off variant 2)	925
12) AGUAACCGUCACGAAAGUGAUGGUUACACAAGUAAAUGUACAUGAGGAUCACCCAUGUCCUCAUUUGCUCGUCUUAU [Sensor 3 - 46] (puzzle: Sensor v3, turn-off variant 2)	373
13) GAUUGACAUGAGGAUCACCCAUGUGAGGAUAUCGGCCGGACCGUGUUGGCUUCCGUCGCGAGAAGGCGCAUAGG [Exclusion 1 V39] (puzzle: Exclusion 1)	82.2
14) AUACGUCAAGUCAGGAUAUAUACCGCGACUACGGCGUAGAAGGGACAUGAGGAUCACCCAUGUAAAAGGGCAAA [Ceerrilaza] (puzzle: Brourd's mod of Exclusion 4)	36.5
15) GGUUGACAUGAGGAUCACCCAUGUGAGGAUAUGCGAGAGAAAAAAGUGAGGAAGAGAUGCAGAAGGCGCUGUCG [salish99-ex1_r3_016] (puzzle: Exclusion 1)	85.8
16) GCAGGAUAAGUCAGGAUAUACCUAUGGAUACAUAGGUAGAAGGGACAUGAGGAUCACCCAUGUUACUCGCCUGC [Fiskers BMX 4 - 74] (puzzle: Brourd's mod of Exclusion 4)	13.6
17) AGUACUAACACGAAAGUGUUAGUACAAUAAGCUUGUGAAACAUGAGGAUCACCCAUGUCCUCAUACGCUCGUCUUAU [salish99_TOv2_r3_055] (puzzle: Sensor v3, turn-off variant 2)	789
18) UUUUAGAGAGGAUAUAUGAUGUGAAACAUGAGGAUCACCCAUGUAAUAUUAUGGAUGUAAAUAGAAGGCUCAUUUA [JL-ex5-3.05] (puzzle: Exclusion 5)	63.3
19) CUUUUGUGAGGAUAUCAGUAGUAAAAAAAUAAAAUUACUAUUGAGAAGGCACAUGAGGAUCACCCAUGUUCCUC [salish99_ex4_r3_029] (puzzle: Exclusion 4)	36.4
20) AUACAACAUGAGGAUCACCCAUGUGAGGAUAUGCGAUACAUCAUCAUCAUCAUCAAUCGCAGAAGGCACAACAU [Different] (puzzle: Exclusion 1)	52.3
21) CAUGGAUGUGAGCCGCAUUACAUGAGGAUCACCCAUGUCAACAAGCUUUUUGCUUGUCUUACGCGGCGGCACCAGAA [Getelexe] (puzzle: Sensor v3, turn-off variant 1)	8.03

----------
- Tested on: MS2 coat protein
- PROCEDURE_SUMMARY: apparent KD of MS2 coat protein, switch ON state; designed switch direction (-1 OFF switch, 1 ON switch): -1; higher = weaker reporter binding
- ASSAY_CONTEXT: FMN input: 0 or 200 uM; Eterna round: R93 (includes R88 designs)
PROPERTY_MEASURED: apparent KD of MS2 coat protein (nM)

1. AACUGACAUGAGGAUCACCCAUGUCAGGAUAUGAUUUGACGAAAAAAAAAAAGUCAUAUCAGAAGGGACAUGGG [Design 82: Sub-opt V]	19
2. CUCAUGUUAGGAUAUUAAUGAAAUGAAGUGAAAGAAAAGAAUAAGAAGGAACAUGAGGAUCACCCAUGUUAGAA [EteRNA is fun!]	69.3
3. CAGAGACAUGAGGAUCACCCAUGUUAGGAUAUGCGUGAAAGAAAAAAAAAGUUAAAAAGCAGAAGGAACAGAGG [JR_Exc001_Sub310]	152
4. AAACAGGGAGGAUAUACACCAUACAAACCUCUAAACAAAAGACAUGAGGAUCACCCAUGUAGAAGGCCCAACAA [Default title]	57.5
5. AUAGGCCUAGGAUAUACAUGAGGAUCACCCAUGUUAAUAUUUCAAACAUGAUAAACGUGUAGAAGGAGGAAUAA [JR_Exc003_Sub303]	41.7
6. GAAAAGUGAGGAUAUACAUGAGGAUCACCCAUGUGUAUAAAAAAUUACACAAAAGAAAGUAGAAGGCACUAAAG [Mat - Exclusion 3 - Mayanna mod - D113]	17.7
7. GAAAAGUCAGGAUAUGUACAAAAUAAAAUAAAAAUAAAAGUACAGAAGGGACAUGAGGAUCACCCAUGUAAAAA [Mat - Exclusion 4 - Mayanna - D119]	47.3
8. GAAAAGUCAGGAUAUGCGAAGGCGUCUGAUAGACGAGGCUAGCAGAAGGGACAUGAGGAUCACCCAUGUGAAAG [Mat - Exclusion 4 - Eli mod - D87]	54.6
9. AAAAAGGGAGGAUAUACGAAAUAGGGAAACCUAAAAAAGGGACAUGAGGAUCACCCAUGUAGAAGGCCCAAGAA [Clint Eastwood 64% 6]	39
10. AAUAGUGGAGGAUAUACAUGAGGAUCACCCAUGUAGAAAGGAAGUGUAUAUAUGGCGUGUAGAAGGCCAAAUAA [Mai Tai 3 ala Nando]	32.3
11. AUGUAGGGAGGAUAUACAUAGAUACAGAUUCGUGUAGAACUACAUGAGGAUCACCCAUGUAGAAGGCCCUAAAA [Mat - Same state - Mayanna Mod - D124]	20.1
12. AAAGGACAAGGAUAUACAUGAGGAUCACCCAUGUAAAAAACAUAAUAAAAGAACUUAUGUAGAAGGUGUCCAAA [69%, Moding Meechl, 8]	38.3
13. AUCAUGUUAGGAUAUUAAAGAAAAGAAAAGAAAGAAAAGAAUAAGAAGGAACAUGAGGAUCACCCAUGUAAGAA [EteRNA is fun!]	30.4
14. AAGAAGUCAGGAUAUACAUGAAAGAAAGAAAAGAAAAGAAAACAUGAGGAUCACCCAUGUAGAAGGGACAAGAA [EteRNA is fun!]	54.5
15. AAAAAACAUGAGGAUCACCCAUGUGAGGAUAUCCAGAAGGGAAUAAAAUAACUCGAAAGGAGAAGGCGCAAAAA [Ex 1 May 34]	31.8
16. CAGUACUGAGGAUAUACAUGAGGAUCACCCAUGUGAUCAAGCUACGAAAGUAGCAAAUGUAGAAGGCAGUACUG [Ex3: 809]	40.7
17. AAAAAGUGAGGAUAUUCGGAAGGGAAAGCGCAAACCCAACCGAAGAAGGCACAUGAGGAUCACCCAUGUGAAAA [Ecls4-III 65% - Early + late G segment 1]	21.2
18. AAAAAGCGAGGAUAUACAUAGCUAAGACAUGUAAGCGAAAAACAUGAGGAUCACCCAUGUAGAAGGCGCAAAAA [Exclusion2-02]	16.8
19. GAAGAACAUGAGGAUCACCCAUGUCAGGAUAUGCGCAAGGGAAUAAUAACUUGCGGAAGCAGAAGGGACAAGAA [Ex 1 May 50]	18.9
20. AAAAGGGCAGGAUAUGCAUGUUGGCAAAAUUCUCAUCAAACACAUGAGGAUCACCCAUGUAGAAGGGCCAACGG [Inonenonat]	110
21. AGCUUCAGAGGAUAUACUUGAGUGAUAAAAGUCUGAUAACUACAUGAGGAUCACCCAUGUAGAAGGCUGUAGCA [Ex2 Design 168: Sub-opt 32]	19.1
22. AAGGGACAUGAGGAUCACCCAUGUCAGGAUAUGCAAACAACAAACAACAAACAACAAAGCAGAAGGGACAAAAA [63%, Olong, 5]	29.1
23. CUCAAGUAAGGAUAUGGAAGAAAAGAAGAGAAAGAAAAGAACCAGAAGGUACAUGAGGAUCACCCAUGUAAGAA [EteRNA is fun!]	37.2
24. AACAGUACAGGAUAUACAUGAGGAUCACCCAUGUGAGACUUAAAAGGCGUACCUAAAAGUAGAAGGGUACUGGA [JL Maslow Revisted mod 21]	56.1
25. GGAAAACAUGAGGAUCACCCAUGUCAGGAUAUGUGAAAAAAAAAAAAAAGAAAAGAAAACAGAAGGGACAAAAG [amethyst 6]	80.8
